Biological target: T1, Goat anti-Human Kappa
T1 construct: Positive control of the ELISA; also called biotinylated goat anti-human kappa light chain
Test: ELISA, positive control; further: test concentration or dose not given here
# key: entry, value: optical density
Write the number in OD without appending the unit.

368_A05 (antibody, V domains shown) VH: EVQLLESGGGLVQPGGSLRLSCAASGFTFSSYSMNWVRQAPGKGLEWVAGINYNSGYTGYADSVKGRFTISRDNSKNTLYLQMNSLRAEDTAVYYCARSANWHDTALDYWGQGTLVTVSS VL: DIQMTQSPSSLSASVGDRVTITCRASQSIVSYLNWYQQKPGKAPKLVIYAATSRASGVPSRFSGSGSGTDFTLTISSLQPEDFATYYCQQSYDSPLTFGGGTKVEIK ... 3.46
368_D11 (antibody, V domains shown) VH: EVQLLESGGGLVQPGGSLRLSCAASGFTFDDYGMNWVRQAPGKGLEWVSNINYNGGYKSYADSVKGRFTISRDNSKNTLYLQMNSLRAEDTAVYYCARSANWHDTALDYWGQGTLVTVSS VL: DIQMTQSPSSLSASVGDRVTITCRASQSILTYLNWYQQKPGKAPKLVIYAATSRASGVPSRFSGSGSGTDFTLTISSLQPEDFATYYCQQSYDLPLTFGGGTKVEIK ... 3.49
368_F11 (antibody, V domains shown) VH: EVQLLESGGGLVQPGGSLRLSCAASGFTFSDYGMNWVRQAPGKGLEWVSGINYNGGYTSYADSVKGRFTISRDNSKNTLYLQMNSLRAEDTAVYYCARSANWHDTHLDYWGQGTLVTVSS VL: DIQMTQSPSSLSASVGDRVTITCRASQSIVSYVNWYQQKPGKAPKLVIYAATSRASGVPSRFSGSGSGTDFTLTISSLQPEDFATYYCQQSYNNPLTFGGGTKVEIK ... 3.53

-- ask Query (binder): 374_E01 (antibody, V domains shown) VH: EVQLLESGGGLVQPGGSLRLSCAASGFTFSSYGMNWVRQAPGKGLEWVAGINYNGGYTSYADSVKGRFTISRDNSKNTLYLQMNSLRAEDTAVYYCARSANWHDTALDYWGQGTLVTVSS VL: DIQMTQSPSSLSASVGDRVTITCRASQSISSYVNWYQQKPGKAPKLLIYAATSRASGVPSRFSGSGSGTDFTLTISSLQPEDFATYYCQQSYSTPLTFGGGTKVEIK ; field requested: optical density
-- reply 3.04

-- ask Now consider 369_H09 (antibody, V domains shown) VH: EVQLLESGGGLVQPGGSLRLSCAASGFTFDDYSMNWVRQAPGKGLEWVSGINYNGGYTSYADSVKGRFTISRDNSKNTLYLQMNSLRAEDTAVYYCARSANWHDTALDYWGQGTLVTVSS VL: DIQMTQSPSSLSASVGDRVTITCRASQSILSYVNWYQQKPGKAPKLLIYAVTSLASGVPSRFSGSGSGTDFTLTISSLQPEDFATYYCQQSYESPLTFGGGTKVEIK and answer again.
-- reply 3.51

-- ask Now consider 368_A09 (antibody, V domains shown) VH: EVQLLESGGGLVQPGGSLRLSCAASGFTFDSYSMNWVRQAPGKGLEWVSGINYNGGYTSYADSVKGRFTISRDNSKNTLYLQMNSLRAEDTAVYYCARSANWHDTHLDYWGQGTLVTVSS VL: DIQMTQSPSSLSASVGDRVTITCRASQSILSYVNWYQQKPGKAPKLLIYAVTSRASGVPSRFSGSGSGTDFTLTISSLQPEDFATYYCQQSYDSPLTFGGGTKVEIK and answer again.
-- reply 3.55

-- ask Now consider 369_G12 (antibody, V domains shown) VH: EVQLLESGGGLVQPGGSLRLSCAASGFTFSSYSMNWVRQAPGKGLEWVANINYNGGYTGYADSVKGRFTISRDNSKNTLYLQMNSLRAEDTAVYYCARSANWHDTALDYWGQGTLVTVSS VL: DIQMTQSPSSLSASVGDRVTITCRASQSILTYVNWYQQKPGKAPKLVIYAATSRHSGVPSRFSGSGSGTDFTLTISSLQPEDFATYYCQQSDNTPLTFGGGTKVEIK and answer again.
-- reply 2.65

-- ask Now consider 371_D09 (antibody, V domains shown) VH: EVQLLESGGGLVQPGGSLRLSCAASGFTFSSYSMNWVRQAPGKGLEWVSNINYNSGYTGYADSVKGRFTISRDNSKNTLYLQMNSLRAEDTAVYYCARSANWHDTALDYWGQGTLVTVSS VL: DIQMTQSPSSLSASVGDRVTITCRASQSILTYLNWYQQKPGKAPKLVIYAATSRASGVPSRFSGSGSGTDFTLTISSLQPEDFATYYCQQSYNNPLTFGGGTKVEIK and answer again.
-- reply 2.17

-- ask Now consider 370_G10 (antibody, V domains shown) VH: EVQLLESGGGLVQPGGSLRLSCAASGFTFSDYGMNWVRQAPGKGLEWVSGINYNSGYTSYADSVKGRFTISRDNSKNTLYLQMNSLRAEDTAVYYCARSANWHDTALDYWGQGTLVTVSS VL: DIQMTQSPSSLSASVGDRVTITCRASQSISSYLNWYQQKPGKAPKLLIYVVNNRASGVPSRFSGSGSGTDFTLTISSLQPEDFATYYCQQSYENPLTFGGGTKVEIK and answer again.
-- reply 3.49

-- ask Now consider 369_D04 (antibody, V domains shown) VH: EVQLLESGGGLVQPGGSLRLSCAASGFTFDSYGMNWVRQAPGKGLEWVSGINYNGGYTSYADSVKGRFTISRDNSKNTLYLQMNSLRAEDTAVYYCARSANWHDTALDYWGQGTLVTVSS VL: DIQMTQSPSSLSASVGDRVTITCRASQSILSYVNWYQQKPGKAPKLVIYAATSRASGVPSRFSGSGSGTDFTLTISSLQPEDFATYYCQQSYNLPLTFGGGTKVEIK and answer again.
-- reply 3.59
